- test-target: Taq DNA polymerase (Thermus aquaticus, UniProt P19821 P19821:1-832)
- Sequence (P19821 whole entry, one chain of several): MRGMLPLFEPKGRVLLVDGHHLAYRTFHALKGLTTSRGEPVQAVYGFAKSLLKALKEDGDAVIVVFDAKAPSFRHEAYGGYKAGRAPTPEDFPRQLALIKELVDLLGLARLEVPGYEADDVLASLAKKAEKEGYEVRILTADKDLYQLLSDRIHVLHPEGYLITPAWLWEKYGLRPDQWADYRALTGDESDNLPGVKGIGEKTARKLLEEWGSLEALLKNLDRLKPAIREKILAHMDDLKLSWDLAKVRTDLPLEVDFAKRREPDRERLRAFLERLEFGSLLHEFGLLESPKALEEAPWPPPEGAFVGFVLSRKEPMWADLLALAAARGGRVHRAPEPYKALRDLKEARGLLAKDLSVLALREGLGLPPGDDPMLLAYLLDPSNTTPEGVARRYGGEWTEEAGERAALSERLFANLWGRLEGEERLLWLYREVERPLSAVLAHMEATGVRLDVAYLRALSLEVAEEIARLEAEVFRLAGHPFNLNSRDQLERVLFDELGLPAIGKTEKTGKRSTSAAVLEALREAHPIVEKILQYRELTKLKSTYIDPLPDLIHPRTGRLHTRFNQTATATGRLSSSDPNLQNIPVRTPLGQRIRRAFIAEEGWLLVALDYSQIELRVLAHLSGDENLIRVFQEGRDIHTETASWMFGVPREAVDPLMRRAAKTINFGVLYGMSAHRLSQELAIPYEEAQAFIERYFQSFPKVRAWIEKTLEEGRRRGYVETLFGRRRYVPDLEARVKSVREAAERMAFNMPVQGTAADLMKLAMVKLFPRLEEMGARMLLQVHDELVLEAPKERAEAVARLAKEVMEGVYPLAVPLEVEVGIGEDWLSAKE
- method-summary: FP filter; 55C; IT50 44.6C
- recorded-conditions: tags: rTaq, 94 kDa, Roche Molecular Systems; label: end-labeled
recorded-endpoint: Kd (nM)

| binder | unit-info | assay-value |
| --- | --- | --- |
| ligand 10 (ssDNA) DNA: TTCTCGGTTGGTCTCTGGCGGAGCGGATCAGACACGAAACATTGCGGACTTTTGTCTTGTGTATGATTCGCTTTTCCC | nM | 0.03 |
